Attribution: PubChem BioAssay

assay: TOR pathway LAP4-GFP level changes – S. cerevisiae, multiplex flow cytometry, primary screen (AID 1873); settings: S. cerevisiae LAP4-GFP expression, 3 h, at 10 µM, hits give high values
Records with an inconclusive call do not appear. Activity calls are given as the source filed them.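 Rule for the calls: active = GFP signal, as percent of the solvent control, above the screen mean plus 3 SD, about 149; inconclusive = no reading because the compound's own fluorescence upset strain identification; inactive = the rest.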
compounds and their reported GFP response vs DMSO

Reference set, count: 6
Supply reported GFP response vs DMSO belonging to this compound: Cc1cccc(NC(=O)c2cc3ccccc3o2)c1
90.8% (inactive)

Name the recorded GFP response vs DMSO of the item c1ccc(CN(CC2=NCCN2)c2ccccc2)cc1 in your answer.
78.7% (inactive)

Tell us which GFP response vs DMSO value is on record for CCCCOc1cc(C(=O)NCCN(CC)CC)c2ccccc2n1
79.8% (inactive)

Let me know recorded GFP response vs DMSO for Brc1c(NC2=NCCN2)ccc2nccnc12 , thanks.
119% (inactive)

Complete the entry with GFP response vs DMSO for CC(C)C(=O)Nc1ccc2c3c(cccc13)CC2
124% (inactive)

Note GFP response vs DMSO for the compound shown: COC(=O)CCC(=O)CN
118% (inactive)

Others:
Write down GFP response vs DMSO measured for item COc1ccc(NC(=O)CC2C(=O)N(C)C(=S)N2Cc2ccncc2)cc1 (stereo not drawn)
75.4% (inactive)

Please report GFP response vs DMSO for the following compound: Fc1ccc(C(c2ccc(F)cc2)N2CCN(C/C=C/c3ccccc3)CC2)cc1
80.9% (inactive)

Give GFP response vs DMSO for CN(C)CCCN1c2ccccc2CCc2ccccc21
90.7% (inactive)

Please give the documented GFP response vs DMSO of CC(=O)OC(C)C[N+](C)(C)C (stereo not drawn)
115% (inactive)

Determine from records and report GFP response vs DMSO for CC(=O)[C@H]1CC[C@H]2[C@@H]3CCC4=CC(=O)CC[C@]4(C)[C@H]3CC[C@]12C
94.8% (inactive)

State its GFP response vs DMSO for this compound: CSCCC(NC(=O)/C(=C/c1ccc2c(c1)OCO2)NC(=O)c1cccc([N+](=O)[O-])c1)C(=O)O (stereo not drawn)
86.4% (inactive)

Note GFP response vs DMSO for the compound shown: COc1ccc(OC(C)C(=O)Nc2ccccc2F)cc1 (stereo not drawn)
108% (inactive)
